- protocol_details: Cardiovascular activity in guinea pig left atrium assessed as negative inotropic activity by measuring decrease of 1 Hz-induced tension at 10^-4 M relative to control
- Type: functional
- protocol_conditions: Cavia porcellus, Cardiac atrium
Entry flag: 1 if inhibition at 100 µM reaches 60%; -1 if it does not.

> print(dat)
                                        smi  classification
1  CC(=O)Nc1nc(SCc2ccccc2)[nH]c(=O)c1N(Cc1ccccc1)Cc1ccccc1               1
2  COCCSc1nc(NC(C)=O)c(N(CCOC)CCOC)c(=O)[nH]1               1
3  CCOc1nc(SCc2ccccc2)nc(N)c1N(Cc1ccccc1)Cc1ccccc1               1
4         CCCSc1nc(N)c(N(CCC)CCC)c(=O)[nH]1               1
5  CCn1c(SCc2ccccc2)nc(N)c(N(Cc2ccccc2)Cc2ccccc2)c1=O              -1

Request: Decide: inhibition at 100 µM of CCn1c(SCCOC)nc(NC(C)=O)c(N(CCOC)CCOC)c1=O >= 60%?
Response: 1

====

- protocol_details: Cardiovascular activity in guinea pig left atrium assessed as negative inotropic activity by measuring decrease of 1 Hz-induced tension at 5 x 10^-5 M relative to control
- Format: functional
- protocol_conditions: Cavia porcellus, Cardiac atrium
measured_quantity: inhibition at 50 µM (%)
Enter your answer as a number in %; do not include the unit.

Some compounds with known inhibition at 50 µM results, for comparison:
> print(dat)
                                     smi  reading
1  CCCSc1nc(NC(C)=O)c(N(CCC)CCC)c(OCC)n1       71
2       CCOc1nc(SCCOC)nc(N)c1N(CCOC)CCOC       79

inhibition at 50 µM for CCCSc1nc(NC(C)=O)c(N(CCC)CCC)c(=O)n1CC is 60

inhibition at 50 µM for CCn1c(SCc2ccccc2)nc(NC(C)=O)c(N(Cc2ccccc2)Cc2ccccc2)c1=O is 66

====

- protocol_details: Cardiovascular activity in guinea pig left atrium assessed as negative inotropic activity by measuring decrease of 1 Hz-induced tension
- Assay type: functional, tissue-based
- protocol_conditions: Cavia porcellus, Cardiac atrium
Threshold-based label: EC50 under 300 nM gives criterion met, EC50 not under 300 nM gives criterion not met.

Below are worked cases with known answers.
> print(dat)
                                        smi     classification
1          CCCSc1nc(N)c(N(CCC)CCC)c(=O)n1CC  criterion not met
2  COCCSc1nc(NC(C)=O)c(N(CCOC)CCOC)c(=O)[nH]1  criterion not met

Request: # TODO verify EC50 < 300 nM strictly for this compound: Nc1nc(SCc2ccccc2)[nH]c(=O)c1N(Cc1ccccc1)Cc1ccccc1
Response: criterion not met

Request: # TODO verify EC50 < 300 nM strictly for this compound: COCCSc1nc(N)c(N(CCOC)CCOC)c(=O)[nH]1
Response: criterion not met

Request: # TODO verify EC50 < 300 nM strictly for this compound: CCCSc1nc(N)c(N(CCC)CCC)c(OCC)n1
Response: criterion met

Request: # TODO verify EC50 < 300 nM strictly for this compound: CCOc1nc(SCCOC)nc(N)c1N(CCOC)CCOC
Response: criterion not met

Request: # TODO verify EC50 < 300 nM strictly for this compound: CCn1c(SCCOC)nc(N)c(N(CCOC)CCOC)c1=O
Response: criterion met

Request: # TODO verify EC50 < 300 nM strictly for this compound: CCCSc1nc(NC(C)=O)c(N(CCC)CCC)c(OCC)n1
Response: criterion not met
